Record: compiled pIC50 on Tyrosine-protein kinase Fyn (Homo sapiens, UniProt P06241) from multiple reports.
pIC50: −log10 of the molar value.

[
  {
    "Cpd smiles": "COc1cc(Nc2ncnc(-n3c(NCc4ccccn4)nc4ccccc43)n2)cc(OC)c1OC",
    "pIC50": "5.31 to 6.08"
  },
  {
    "Cpd smiles": "COc1ccc(Nc2ncnc(-n3c(N)nc4ccccc43)n2)cc1",
    "pIC50": "4.87 to 4.98"
  },
  {
    "Cpd smiles": "CCN1CCC(Nc2ccc3c(c2)/C(=C(/c2nc(C)c[nH]2)c2ccc(C(F)(F)F)cc2F)C(=O)N3)CC1",
    "pIC50": "> 7.30"
  },
  {
    "Cpd smiles": "Cc1nc(C#N)cc(Nc2cc(CCc3cc(NC(=O)c4ccc(CN(C)C)c(C(F)(F)F)c4)ccc3F)n[nH]2)n1",
    "pIC50": 9.00
  },
  {
    "Cpd smiles": "COc1ccc(Sc2ncnc(Nc3cc(OC)c(OC)c(OC)c3)n2)cc1",
    "pIC50": "5.22 to 6.00"
  },
  {
    "Cpd smiles": "COCCN1CCC(Nc2ccc3c(c2)/C(=C(\\c2ccc(C)c(F)c2)c2nc(C)c[nH]2)C(=O)N3)CC1",
    "pIC50": "> 7.30"
  }
]

Enquiry: Using Tyrosine-protein kinase Fyn (Homo sapiens, UniProt P06241) as the test system, report measured pIC50 of "COc1cc(Nc2ncnc(Nc3ccc(C)c(F)c3)n2)cc(OC)c1OC" .
Return: 5.21 to 5.98

Enquiry: Using Tyrosine-protein kinase Fyn (Homo sapiens, UniProt P06241) as the test system, report measured pIC50 of "COc1cc(Nc2ncnc(-n3c(NCCc4ccccn4)nc4ccccc43)n2)cc(OC)c1OC" .
Return: < 5.04
